Origin of values: patent US8119626B2

# STUDY_SYSTEM: UniProt P35557
# TEST_METHOD_NOTES: Glucokinase activation effect (G6PDH-coupled NADPH assay)
# RUN_PARAMETERS: 5 mM glucose, 5 mM ATP, 30° C., absorbance 340 nm for 15 minutes, 5% DMSO
EXPERIMENTAL_READOUT: pEC50
One number for each entry, as −log10 of the molar value.

Recorded pEC50, per entry:
MOLECULAR_STRING: Cn1ccnc1CS(=O)(=O)c1ccc(/C(=N\O[C@@H]2CCOC2)C(=O)Nc2ncc(F)s2)cc1
STUDY_SYSTEM: UniProt P35557
pEC50: 6.39
--
MOLECULAR_STRING: O=C(Nc1ncc(F)s1)/C(=N/O[C@@H]1CCOC1)c1ccc(S(=O)(=O)NCCF)cc1
STUDY_SYSTEM: UniProt P35557
pEC50: 6.22
--
MOLECULAR_STRING: O=C1CN(Cc2cnc(NC(=O)/C(=N/O[C@@H]3CCOC3)c3ccc(S(=O)(=O)C4CC4)cc3)s2)CCN1
STUDY_SYSTEM: UniProt P35557
pEC50: 5.92
--
MOLECULAR_STRING: C[C@@H](CO)O/N=C(/C(=O)Nc1ncc(Cl)s1)c1ccc(S(=O)(=O)C2CC2)cc1
STUDY_SYSTEM: UniProt P35557
pEC50: 6.52

Can you give me pEC50 for all of these, one by one?
1. O=C(Nc1ncc(CN2CCOCC2)s1)/C(=N/O[C@@H]1CCOC1)c1ccc(S(=O)(=O)C2CC2)cc1
2. COCCN(C)S(=O)(=O)c1ccc(/C(=N\O[C@@H]2CCOC2)C(=O)Nc2ncc(CN3CCN(C)CC3)s2)cc1
3. COCCCS(=O)(=O)c1ccc(/C(=N\O[C@@H]2CCOC2)C(=O)Nc2nc3ccc(OCCO)cc3s2)cc1

6.03
6.12
6.24

----------
# STUDY_SYSTEM: human-liver type GST-GK (Homo sapiens)
# Sequence (P35557 1-466 isoform P35557-2): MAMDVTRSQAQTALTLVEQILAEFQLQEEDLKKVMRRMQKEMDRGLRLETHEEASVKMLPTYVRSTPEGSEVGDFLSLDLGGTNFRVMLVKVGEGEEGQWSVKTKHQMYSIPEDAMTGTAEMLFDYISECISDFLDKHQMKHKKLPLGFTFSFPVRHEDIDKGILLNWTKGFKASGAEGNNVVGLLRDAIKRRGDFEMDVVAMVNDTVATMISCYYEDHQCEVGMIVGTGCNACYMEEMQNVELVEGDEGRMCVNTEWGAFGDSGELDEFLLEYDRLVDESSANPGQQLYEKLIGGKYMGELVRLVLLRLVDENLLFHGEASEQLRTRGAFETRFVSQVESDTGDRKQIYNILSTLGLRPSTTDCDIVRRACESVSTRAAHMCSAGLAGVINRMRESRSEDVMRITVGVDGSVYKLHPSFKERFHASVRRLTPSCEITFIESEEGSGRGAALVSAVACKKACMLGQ
# TEST_METHOD_NOTES: Glucokinase activation effect (G6PDH-coupled NADPH assay)
# RUN_PARAMETERS: 5 mM glucose, 5 mM ATP, 30° C., absorbance 340 nm for 15 minutes, 5% DMSO
EXPERIMENTAL_READOUT: EC50 (nM)
Answers are plain numbers, in nM.

Sample answers from the record:
MOLECULAR_STRING: CCN(CCO)S(=O)(=O)c1ccc(/C(=N\O[C@@H]2CCOC2)C(=O)Nc2cnc(C3CC3)cn2)cc1
EC50 (nM): 350
--
MOLECULAR_STRING: COCCCS(=O)(=O)c1ccc(/C(=N\O[C@@H]2CCOC2)C(=O)Nc2nc3ccc(OCCO)nc3s2)cc1
EC50 (nM): 230
--
MOLECULAR_STRING: COCCCS(=O)(=O)c1ccc(/C(=N\OCc2ncccn2)C(=O)Nc2nc3ccc(OC)nc3s2)cc1
EC50 (nM): 180

Provide each entry's EC50 from the list below.
1. CC(=O)N1CCN(Cc2cnc(NC(=O)/C(=N/O[C@@H]3CCOC3)c3ccc(S(=O)(=O)C4CC4)cc3)s2)CC1
2. Cc1nsc(NC(=O)/C(=N/O[C@@H]2CC[C@@H](O)C2)c2ccc(S(=O)(=O)C3CC3)cc2)n1

1. 790
2. 570

Batch: EC50 for all items listed.
1. CC(=O)N1CCN(Cc2cnc(NC(=O)/C(=N/O[C@@H]3CCOC3)c3ccc(S(=O)(=O)C4CC4)cc3)s2)C[C@@H]1C
2. COCCCS(=O)(=O)c1ccc(/C(=N\O[C@@H]2CC[C@@H](O)C2)C(=O)Nc2ncc(C)s2)cc1

1. 550
2. 520
